- study_target: human recombinant vasopressin V1a receptor (Homo sapiens)
- Construct: gene AVPR1A; full-length recombinant receptor in 1321N1 host cells (PerkinElmer)
- Sequence (P37288 whole entry): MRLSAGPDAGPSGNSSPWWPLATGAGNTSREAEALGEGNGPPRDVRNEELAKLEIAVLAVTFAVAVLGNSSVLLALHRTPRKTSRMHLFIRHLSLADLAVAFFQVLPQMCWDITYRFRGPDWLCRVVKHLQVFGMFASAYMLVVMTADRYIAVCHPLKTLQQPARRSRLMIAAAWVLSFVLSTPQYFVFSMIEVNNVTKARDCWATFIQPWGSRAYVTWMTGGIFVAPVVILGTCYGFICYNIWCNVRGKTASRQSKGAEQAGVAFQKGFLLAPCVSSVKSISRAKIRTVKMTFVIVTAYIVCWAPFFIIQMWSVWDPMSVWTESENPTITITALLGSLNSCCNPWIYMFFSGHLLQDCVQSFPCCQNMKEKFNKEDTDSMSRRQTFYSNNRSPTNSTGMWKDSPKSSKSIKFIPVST
- assay_details: radioligand binding assay
- Format: cell-based
- condition_summary: read-out: Bingding Assy (IC50; nmol/mL) / V1a
measurement_name: IC50 (nmol/mL)

Use the examples below as a reference point.
{"compound": "O=C(Nc1ccc(C(=O)N2CCC(=C3c4ccc(Cl)cc4CCc4cccnc43)CC2)cc1)c1ccccc1F [1m]", "study_target": "human recombinant vasopressin V1a receptor (Homo sapiens)", "measurement_name": "IC50", "result_unit": "nmol/mL", "result_value": 170}
{"compound": "O=C(c1ccc(NS(=O)(=O)c2ccccc2Cl)cc1)N1CCC(=C2c3ccc(Cl)cc3CCc3cccnc32)CC1 [1r]", "study_target": "human recombinant vasopressin V1a receptor (Homo sapiens)", "measurement_name": "IC50", "result_unit": "nmol/mL", "result_value": 830}
{"compound": "O=C(Nc1ccc(C(=O)N2CCC(=C3c4ccc(Cl)cc4CCc4cccnc43)CC2)cc1)c1cccc([N+](=O)[O-])c1 [1o]", "study_target": "human recombinant vasopressin V1a receptor (Homo sapiens)", "measurement_name": "IC50", "result_unit": "nmol/mL", "result_value": 550}
{"compound": "Cc1ccc(S(=O)(=O)Nc2cccc(S(=O)(=O)N3CCC(=C4c5ccc(Cl)cc5CCc5cccnc54)CC3)c2)cc1 [1w]", "study_target": "human recombinant vasopressin V1a receptor (Homo sapiens)", "measurement_name": "IC50", "result_unit": "nmol/mL", "result_value": 860}
{"compound": "O=C(Nc1cccc(S(=O)(=O)N2CCC(=C3c4ccc(Cl)cc4CCc4cccnc43)CC2)c1)c1cccc([N+](=O)[O-])c1 [1v]", "study_target": "human recombinant vasopressin V1a receptor (Homo sapiens)", "measurement_name": "IC50", "result_unit": "nmol/mL", "result_value": 630}
{"compound": "Cc1cccc(C(=O)Nc2ccc(C(=O)N3CCC(=C4c5ccc(Cl)cc5CCc5cccnc54)CC3)cc2)c1 [1j]", "study_target": "human recombinant vasopressin V1a receptor (Homo sapiens)", "measurement_name": "IC50", "result_unit": "nmol/mL", "result_value": 370}
{"compound": "Cc1ccc(S(=O)(=O)Nc2ccc(S(=O)(=O)N3CCC(=C4c5ccc(Cl)cc5CCc5cccnc54)CC3)cc2)cc1 [1y]", "study_target": "human recombinant vasopressin V1a receptor (Homo sapiens)", "measurement_name": "IC50", "result_unit": "nmol/mL", "result_value": 920}

1 = Cc1ccc(C(=O)Nc2ccc(C(=O)N3CCC(=C4c5ccc(Cl)cc5CCc5cccnc54)CC3)cc2)cc1 [1i]
2 = COc1cccc(C(=O)Nc2ccc(C(=O)N3CCC(=C4c5ccc(Cl)cc5CCc5cccnc54)CC3)cc2)c1 [1n]
3 = Cc1ccc(S(=O)(=O)Nc2ccc(C(=O)N3CCC(=C4c5ccc(Cl)cc5CCc5cccnc54)CC3)cc2)cc1 [1q]
Q: Arrange the 3 compounds from largest to smallest IC50. Return value: ordered labels per request.
Ans: 3, 2, 1
(3: 720 nmol/mL, 2: 390 nmol/mL, 1: 220 nmol/mL)
